- Assay target: Human GO (Homo sapiens, UniProt Q9UJM8)
- Construct: purchased Novus Biologicals NBP1-72412
- Sequence (Q9UJM8 whole entry): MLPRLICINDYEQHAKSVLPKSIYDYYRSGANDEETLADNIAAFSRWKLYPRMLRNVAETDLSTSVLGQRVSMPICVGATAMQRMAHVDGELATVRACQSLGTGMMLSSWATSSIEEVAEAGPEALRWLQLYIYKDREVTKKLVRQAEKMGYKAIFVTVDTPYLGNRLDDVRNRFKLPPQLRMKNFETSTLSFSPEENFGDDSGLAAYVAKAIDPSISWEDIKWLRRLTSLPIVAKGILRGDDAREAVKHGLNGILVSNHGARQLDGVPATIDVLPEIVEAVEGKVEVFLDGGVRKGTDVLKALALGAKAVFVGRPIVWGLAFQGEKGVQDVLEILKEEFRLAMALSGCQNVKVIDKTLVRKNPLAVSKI
- Measurement protocol: GO enzymatic assay (coupled fluorescence/HRP assay, glycolate substrate)
- Format: biochemical
- Settings: Table 2; read-out: Range (range of IC50 values calculated from the enzymatic assays)
pIC50: −log10 of the molar value.
Measurement kind: pIC50

Compound: O=C(OCOC(=O)c1[nH]nnc1Sc1ccc(-c2ccc(N3CCCCC3)cc2)cc1)c1ccccc1 [Compound 278]
Result: 5.00 to 6.00

Compound: O=C(O)c1[nH]nnc1C(F)(F)c1ccc(-c2ccc(Cl)cc2)c(Cl)c1 [Compound 197, 2,2,2-trifluoroacetate]
Result: > 7.00

Please tell me the measured pIC50 for O=C(O)c1[nH]nnc1Oc1cccc(OCC2CCCC2)c1 [Compound 290, 2,2,2-trifluoroacetate] ; system: Human GO (Homo sapiens, UniProt Q9UJM8).
> 7.00

Please tell me the measured pIC50 for O=C(O)c1[nH]nnc1OCC1C2CN(c3ccc(Cl)c(Cl)c3)CC12 (centres unmarked) [Compound 369] ; system: Human GO (Homo sapiens, UniProt Q9UJM8).
> 7.00

Please tell me the measured pIC50 for O=C(O)c1[nH]nnc1OCC1CCC(c2ccc(OC(F)(F)F)cc2)CC1 (centres unmarked) [Compound 298] ; system: Human GO (Homo sapiens, UniProt Q9UJM8).
> 7.00

Please tell me the measured pIC50 for O=C(O)c1[nH]nnc1O[C@H]1CC[C@@H](c2cc(Cl)cc(OC(F)(F)F)c2)CC1 [Compound 355] ; system: Human GO (Homo sapiens, UniProt Q9UJM8).
> 7.00

Please tell me the measured pIC50 for O=C(O)c1[nH]nnc1OC1CCC2(CCCC2)CC1 [Compound 284] ; system: Human GO (Homo sapiens, UniProt Q9UJM8).
> 7.00

Please tell me the measured pIC50 for O=C(O)c1[nH]nnc1Nc1ccc(-c2ccc(C(F)(F)F)cc2)cc1 [Compound 183] ; system: Human GO (Homo sapiens, UniProt Q9UJM8).
> 7.00

Please tell me the measured pIC50 for O=C(O)c1[nH]nnc1Oc1ccc(Cl)c(OCC2CCCCC2)c1 [Compound 309] ; system: Human GO (Homo sapiens, UniProt Q9UJM8).
> 7.00

Please tell me the measured pIC50 for O=C(O)c1[nH]nnc1OCc1ccc2cc(Cl)ccc2c1 [Compound 227, 2,2,2-trifluoroacetate] ; system: Human GO (Homo sapiens, UniProt Q9UJM8).
> 7.00

---

- Assay target: Human GO (Homo sapiens)
- Construct: purchased Novus Biologicals NBP1-72412
- Measurement protocol: GO enzymatic assay (coupled fluorescence/HRP assay, glycolate substrate)
- Format: biochemical
- Settings: Table 1; read-out: Range (range of IC50 values calculated from the enzymatic assays)
// reported IC50 for each item listed

Illustrative cases are given below, each with its answer.
Compound: O=C(O)c1[nH]nnc1Nc1ccc(-c2ccc(OC(F)(F)F)c(Cl)c2)cc1 [Compound 155]
Measurement kind: IC50
Result: < 0.1 µM
--
Compound: O=C(O)c1[nH]nnc1C(=O)N1CCc2cc(Cl)ccc21 [Compound 148]
Measurement kind: IC50
Result: < 0.1 µM
--
Compound: O=C(O)c1[nH]nnc1Oc1ccc(OC(F)(F)F)cc1 [Compound 96]
Measurement kind: IC50
Result: < 0.1 µM
--
Compound: O=C(O)c1[nH]nnc1SC1Cc2cc(Cl)c(Cl)cc2C1 [Compound 57, 2,2,2-trifluoroacetate]
Measurement kind: IC50
Result: < 0.1 µM
--
Compound: O=C(O)c1[nH]nnc1Nc1cc(Cl)ccc1Cl [Compound 154, 2,2,2-trifluoroacetate]
Measurement kind: IC50
Result: 1 to 10 µM
--
Compound: O=C(O)c1[nH]nnc1Nc1ccc(-c2ccc(Cl)cc2)cc1 [Compound 58-2]
Measurement kind: IC50
Result: < 0.1 µM

State its IC50 for this compound: CN1CCN(c2ccc(Sc3nn[nH]c3C(=O)O)cc2)CC1 [Compound 10]
1 to 10 µM

State its IC50 for this compound: O=C(O)c1[nH]nnc1Oc1ccc(-c2cccc(CN3CCCCC3)c2)cc1 [Compound 160, 2,2,2-trifluoroacetate]
0.1 to 1 µM

State its IC50 for this compound: O=C(O)c1[nH]nnc1Oc1ccc(-c2ccc(Cl)c(OC(F)(F)F)c2)cc1 [Compound 163]
< 0.1 µM
